The origin of these recorded values is PubChem BioAssay (NCI).

tested on: SF-268 CNS; assay: NCI-60 one-dose screen, 48 h; conditions: 10 µM unless noted
This is part of a sample that, as a whole, favours compounds with a hit. Of some 83,000 tested, about 20% had one in any assay. The source made the active and inactive calls. The calls were made as follows: active = growth percent below 10; inactive = the rest.
The categories you may choose from are active, inactive

Look over these answered cases.
[[record]]
molecule = "Cc1ccc(Cn2c(-c3cccs3)nc3ccccc32)cc1"
discretelabel = "inactive"

[[record]]
molecule = "Cc1ccc(C2=NN(c3ccc(S(N)(=O)=O)cc3)C(c3cn(-c4ccccc4)nc3-c3ccccc3)C2)cc1 (configuration not stated)"
discretelabel = "inactive"

[[record]]
molecule = "COc1cc(-c2n[nH]nc2-c2ccc3c(c2)OCCO3)cc(OC)c1OC"
discretelabel = "inactive"

[[record]]
molecule = "COc1ccc(-c2nc3sccn3c2-c2ccnc(NCCNS(=O)(=O)c3ccc(C(F)(F)F)cc3)n2)cc1"
discretelabel = "active"

[[record]]
molecule = "C=CCOc1cccc(/C=C/C(=O)c2sc(Nc3cccnc3)nc2C)c1"
discretelabel = "inactive"

[[record]]
molecule = "O=C(O)Cc1ccc2c(c1)Cc1cccnc1O2"
discretelabel = "inactive"


Ask | // outcome(item) with item = COc1c(NC[C@H]2OC(O)[C@H](O)[C@@H](O)[C@@H]2O)c(=O)c1=O (some centres not stated)
Reply | inactive

Ask | Recorded test outcome, item COC1=CC(c2ccc[nH]2)=N/C1=C\c1[nH]c(C)c(C(=O)CCC(=O)Oc2ccc3c(c2)CCC2C3CC[C@]3(C)[C@@H](O)CC[C@@H]23)c1C (some centres not stated)
Reply | active

Ask | Call for entry `O=C(CNC(=O)c1cccc2ccccc12)Nc1ccccc1Oc1ccccc1` :
Reply | inactive

Ask | Test call for this molecule, please: `O=C(Nc1ccc(Cl)cc1)c1cc(-c2ccc(F)cc2)c2sc(=O)[nH]c2n1`
Reply | inactive

Ask | Please state the recorded outcome for this molecule: COc1cc(C2C=C(C)N=C3SC=C(C)N32)cc(OC)c1OC (configuration not stated)
Reply | active

Ask | Answer briefly: the call reported for `CCO/C=N/NC(=O)c1ccncc1` in this assay.
Reply | inactive

Ask | Outcome logged for `COc1cccc(-c2nc3sccn3c2-c2ccnc(NCCCNS(=O)(=O)c3ccccc3)n2)c1` in this assay:
Reply | inactive

Ask | What outcome does the record of this test show for `NC(=O)NC(=O)/C=C/C(=O)OCCCl` ?
Reply | inactive

Ask | Which outcome did this test record for the molecule `COc1ccc(N=C2NN=C(c3ccc(F)cc3)CS2)cc1OC` ?
Reply | inactive

Ask | Hey, what did the test say about `Nc1c(C(=O)Nc2cccc(C(F)(F)F)c2)sc2nc3c(cc12)CCCCC3` ?
Reply | inactive

Ask | Hey, what did the test say about `CC[C@H](C)[C@H]1NC(=O)[C@@H](N[C@](C)(O)[C@@H](N)CC(C)C)[C@@H](C)OC(=O)[C@H](Cc2ccc(OC)cc2)N(C)C(=O)[C@@H]2CCCN2C(=O)[C@H](CC(C)C)NC(=O)[C@@H](C)C(=O)[C@H](C(C)C)OC(=O)C[C@@H]1O` ?
Reply | active

Ask | Please indicate how the test categorized Cc1ccc2c(c1)C(C)Cc1c(N(C)C)ncnc1N2C (configuration not stated) .
Reply | inactive

Ask | Query: recorded result category for `COc1ccc(/C=C\c2cc(OC)c(OC)c(OC)c2)c(NS(=O)(=O)c2ccc(C(C)(C)C)cc2)c1O` in this test
Reply | inactive

Ask | Could you please tell me the result logged for COc1ccc(C2SCC(=O)N2NC(=O)c2ccc(NC(=O)c3ccccn3)cc2)cc1OC (configuration not stated) in this assay?
Reply | inactive

Ask | Hi, do you know how `NCCSC(c1ccccc1)(c1ccccc1)c1ccccc1` came out in this test?
Reply | inactive

Ask | Tell me the assay call for `COc1cc(/C=C\c2cc(OC)c(OC)c(OC)c2)cc(N/C=C\C(=O)c2c[nH]c3ccccc23)c1OC` please.
Reply | inactive

Ask | Could you kindly confirm the outcome this assay logged for Cc1ccc2c(c1)C(C)Cc1c(ncnc1-n1cnc3ccccc31)N2C (configuration not stated) ?
Reply | inactive

Ask | Status in this test for `COc1cc(CNC(=O)CCSc2nc3ccccc3c(=O)n2Cc2cc(OC)c(OC)c(OC)c2)cc(OC)c1OC` ?
Reply | inactive

Ask | For `O=C(CNC1CCCCC1)Nc1ccc(-c2nc3ccccc3s2)cc1` , which call appears in the assay record?
Reply | inactive

Ask | Please indicate how the test categorized `Cc1cc2c(C(C)C)c(O)c(O)c(C=NCCCCC(=O)O)c2c(O)c1-c1c(C)cc2c(C(C)C)c(O)c(O)c(C=NCCCCC(=O)O)c2c1O` .
Reply | inactive

Ask | For `COc1cc2c(cc1OCCCCn1c(-c3cc(=O)c4ccccc4o3)nc3ccccc31)N=C[C@@H]1CCCN1C2=O` , which call appears in the assay record?
Reply | inactive

----------
system: UACC-62 melanoma; assay: NCI-60 one-dose screen, 48 h (100 = growth as untreated, 0 = no growth, -100 = all killed); settings: 10 µM unless noted
About 83,000 compounds went through this panel and 20% of them were active in at least one assay; those are over-represented in the sample as a whole.
outcomeMeasure: growth (%)
Quick reminder: number only, in %, skip the unit.

Example results:
[[record]]
chemicalstructure = "O=P([O-])(O)OP(=O)([O-])O.[NH-][C@H]1CCCC[C@@H]1[NH-].[OH-].[OH-].[Pt+4]"
measuredvalue = 103

[[record]]
chemicalstructure = "Cn1c(=O)c2c(nc3n2CCN(CCc2ccc(OCCN4CCOCC4)cc2)C3)n(C)c1=O"
measuredvalue = 98.8


growth recorded for this compound, `c1ccc(CCn2nnc3c(Nc4ccc(N5CCOCC5)cc4)ncnc32)cc1` , is 85.8

growth measured on `O=S(=O)(O)CCl` = 100

The recorded growth for `Cc1nn(-c2ccc(Cl)cc2)c(=O)n1CCOc1ccccc1Cl` is 101

----------
test system: 786-0 renal; assay: NCI-60 one-dose screen, 48 h (100 = growth as untreated, 0 = no growth, -100 = all killed); settings: 10 µM unless noted
This is part of a sample that, as a whole, favours compounds with a hit. Of some 83,000 tested, about 20% had one in any assay.
As shown below, each of these compounds has a reported growth value.
Form entry: value (%) — number only.

# example entries with known answers
[[record]]
compound = "COc1cccc2cc(-c3cc4ccccc4[nH]3)c(=NC(=O)c3ccc(Cl)cc3)oc12"
measuredvalue = 69.5

[[record]]
compound = "Cc1cccc(-n2c(C)nc3ccc(NC(=O)NCCCl)cc3c2=O)c1"
measuredvalue = 93.5

[[record]]
compound = "CCn1cc(C(=O)O)c(=O)c2cc(F)c(N3CCN(S(=O)(=O)c4ccc(OC)c(OC)c4)CC3)cc21"
measuredvalue = 99.5

[[record]]
compound = "Cc1cc(NC(=O)COC(=O)c2sc3cc(F)ccc3c2Cl)no1"
measuredvalue = 101

[[record]]
compound = "N=C(N)c1ccc(-c2ccc(-c3ccc(Cl)cc3)o2)nc1"
measuredvalue = -85.1

[[record]]
compound = "C#CCC1(c2ccc(F)c(F)c2)NS(=O)(=O)c2ccccc21 (centres undefined)"
measuredvalue = 101

[[record]]
compound = "C/C(=N\\NC(=O)CC#N)c1cc2cc(Cl)ccc2o1"
measuredvalue = 105

[[record]]
compound = "CC(=O)Nc1nc(C(=O)N2N=C(C)/C(=C/c3ccc(Cl)cc3)C2=O)cs1"
measuredvalue = 100

[[record]]
compound = "O=C(c1c[nH]c2ccccc12)C(Sc1nc2ccccc2c(=O)[nH]1)c1ccccc1 (centres undefined)"
measuredvalue = 104

[[record]]
compound = "Nc1c(C(=O)Nc2ccccc2)sc2nc3c(cc12)CN(Cc1ccccc1)CC3"
measuredvalue = 28.8


Value of growth reported for the compound `O=C1c2ccccc2C(=O)c2c1oc1oc3c(c(=O)c21)c(=O)n(-c1ccccc1)c1ccccc31` is 97.9

Short answer for `CC/C=C\C[C@H](O)C/C=C1/C(=O)C(Cl)=C[C@@H]1C/C=C\CCCC(=O)OC` : growth was -40.8

growth measured on `COc1ccccc1OCC(=O)Nc1sc2c(c1C(N)=O)CCC2` = 75.1

Notebook: `Cc1cc(C)c(NC(=O)c2sc3nc4c(cc3c2N)CN(Cc2ccccc2)CC4)c(C)c1` , growth read as 39

According to the records, this compound CCCCOc1nc2c(C)cccc2cc1C1CNC(=O)c2ccccc2N1 (centres undefined) displays growth of 46.2

Documented growth of `Cc1cc(Nc2nc(-c3ccc(F)cc3)nc3ccccc23)n[nH]1` : 56.9

growth for `COc1ccc(/C=C/C(=O)c2ccc(B(O)O)cc2)cc1O` is 84.9

Recorded result, `COc1cc(Cn2c(SCC(=O)Nc3cc(OC)c(OC)c(OC)c3)nc3ccccc3c2=O)cc(OC)c1OC` , growth: 73.6

Query `O=C(Nc1cccc(Cl)c1)c1cc([N+](=O)[O-])ccc1O` yields growth of 63.8
